Listed compounds paired with reported relative cell viability
system: TE10; assay: relative cell viability vs DMSO, compound + 0.2 uM CuET (fraction); TE10 is an esophageal squamous carcinoma line; higher = less cytotoxic; conditions: 2 µM; co-treatment: CuET (bis(diethyldithiocarbamate)copper) 0.2 uM; 48 h
Structures can show the parent of a compound that is named as a salt. Over roughly 2,000 compounds, “relative cell viability vs DMSO, compound + 0.2 uM CuET” has its median near 1; the lowest 2% begin near 0.25. Only a selection was taken, and the lowest values are over-represented in it overall.
quantity_name: relative cell viability

compound	tested_system	quantity_name	observed_value
Cc1c(CN2CCN(C(=O)[C@H](C)O)CC2)sc2c(N3CCOCC3)nc(-c3cnc(N)nc3)nc12	TE10	relative cell viability	0.495
C#Cc1cccc(Nc2ncnc3cc(OCCOC)c(OCCOC)cc23)c1 [Erlotinib HCl (OSI-744)]	TE10	relative cell viability	1.18
COc1cc(C(=O)NS(=O)(=O)c2ccccc2C)ccc1Cc1cn(C)c2ccc(NC(=O)OC3CCCC3)cc12	TE10	relative cell viability	1.08
CCC(=O)OCC(=O)[C@@]1(OC(=O)CC)[C@@H](C)C[C@H]2[C@@H]3CCC4=CC(=O)C=C[C@]4(C)[C@@]3(F)[C@@H](O)C[C@@]21C [Betamethasone Dipropionate]	TE10	relative cell viability	1.05
CCOc1ccccc1OC(c1ccccc1)C1CNCCO1 (stereo unspecified) [Reboxetine mesylate]	TE10	relative cell viability	1.2
NC(=O)c1ccc(-c2nc(-c3ccc4c(c3)OCCO4)c(-c3ccccn3)[nH]2)cc1	TE10	relative cell viability	0.996
